Origin of values: PubChem BioAssay (NCI)

Consider the following molecules; for each one, report its TGI.
- System: SK-MEL-5 melanoma
- assay-remarks: NCI tumour cell line growth inhibition, 48 h

> print(dat)
                                   molecule   observed
1  Cc1ccccc1NC(=O)C(=O)c1c(O)c2ccc(O)cc2oc1=O   > 100 µM
2  C=C1C(O)C2C(=C(CCC3CC3)C13CC3)C(=O)C(C)(C)C2O (stereo not given)   > 100 µM
3  O=c1c2cc(I)ccc2nc(Sc2ccc([N+](=O)[O-])cc2[N+](=O)[O-])n1Cc1ccccc1    17.8 µM
4  Cc1ccc(C2CC(c3cccc([N+](=O)[O-])c3)=Nc3ccccc3S2)cc1 (stereo not given)  > 72.2 µM
5  O=c1c2ccccc2n2c(-c3ccc(O)cc3)nnc2n1-c1ccccc1    37.2 µM

Batch: TGI for all items listed.
1. C[N+](C)(CCNc1ccc(NCC[N+](C)(C)Cc2ccc([N+](=O)[O-])cc2)c2c1C(=O)c1ccccc1C2=O)Cc1ccc([N+](=O)[O-])cc1
2. Cc1ccccc1NC(=O)/C(=N/NC(=O)CC#N)C1C(=O)N(c2ccccc2)N=C1N (stereo not given)

Result:
> 100 µM
> 100 µM

Batch: TGI for all items listed.
1. O=[N+]([O-])/C(C(Cl)=C(Cl)Cl)=C(/Br)SCc1ccccc1
2. Cn1cnc([N+](=O)[O-])c1Sc1nc2ccccc2s1
3. NS(=O)(=O)c1cc2c(cc1Cl)NC(/C(=N/NC(=O)c1ccncc1)C1C(=O)NC(=O)NC1=O)=NS2(=O)=O

Result:
16.4 µM
27.1 µM
> 100 µM
